# credit: patent US20230118024A1

- TARGET_UNDER_TEST: T1, HLA-DQ2.5 on Ba/F3 cells (not in the form of a complex with a linked peptide) (human, UniProt P01909 24-254; P01920 33-261)
- T1 construct: also called Ba/F3-HLA-DQ2.5; No peptide
- T1 MHC II alpha: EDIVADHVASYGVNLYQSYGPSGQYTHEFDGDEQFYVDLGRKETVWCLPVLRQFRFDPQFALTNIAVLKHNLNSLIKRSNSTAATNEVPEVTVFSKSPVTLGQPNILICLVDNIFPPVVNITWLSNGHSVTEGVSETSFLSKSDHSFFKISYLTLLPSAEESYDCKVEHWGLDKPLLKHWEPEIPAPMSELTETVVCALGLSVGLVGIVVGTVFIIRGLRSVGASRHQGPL
- T1 MHC II beta: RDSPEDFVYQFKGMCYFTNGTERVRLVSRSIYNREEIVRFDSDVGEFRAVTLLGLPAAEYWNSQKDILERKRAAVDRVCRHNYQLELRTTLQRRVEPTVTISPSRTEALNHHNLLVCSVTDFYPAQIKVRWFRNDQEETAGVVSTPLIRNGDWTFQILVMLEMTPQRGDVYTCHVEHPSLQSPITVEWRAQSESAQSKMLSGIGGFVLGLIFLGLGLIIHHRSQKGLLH
- ASSAY_INFO: FACS
For each of the binders below, state its FIG. 30 FACS value (IC17=0, DQN0139bb=100).

Per the records, this binder ( DQN0334bb (antibody, human IgG1, kappa, V domains shown, also called DQN0334Hb; DQN0334Lb) VH: QQQLEESGGDLVQPEGSLTLTCKASGFDFSFNAMCWVRQAPGRGPEWIACIYNGNGSTYYASWAKGRFTISKTSSTSVTLQMTSLTAADTATYFCARGGYGLGYAGYGDVNYFNLWGPGTLVTVSS VL: AVVLTQTASPVSAPVGGTVTIKCQASEDIYFLLAWYRQKPGQPPKLLIYGASTLASGVPSRFKGSGSGTEYTLTISDLECADAATYYCQSYWYGDSGPNTFGGGTKVEIKR ) has FIG. 30 FACS value (IC17=0, DQN0139bb=100) equal to 0.4

Per the records, this binder ( DQN0324hh (antibody, human IgG1, kappa, V domains shown, also called DQN0324Lh) VH: QSLEESGGDLVKPGASLALTCTASGFSLINNYYMCWVRQAPGKGLEWIACIYAGLGGWTYYASWAKGRFTISKTSSTTVTLQMSSLTVADAATYFCARAATTYYHFNLWGPGTLVTVSS VL: AVVLTQTESPVSAAVGDTVTIKCQASQSIGNALAWYQQKPGQPPKLLIYDASTLASGVPSRFKGSGSGTQFTLTISDLECADAATYYCQSYDYGSSADTYTFGGGTKVEIKR ) has FIG. 30 FACS value (IC17=0, DQN0139bb=100) equal to 0
